Record form. Attribute: GI50. Fill in for each entry.
test system: HCT-116 colon; assay: NCI tumour cell line growth inhibition, 48 h

// worked examples, GI50 included
Molecule	GI50
CS(=O)(=O)CCCn1c(=O)c(Oc2ccc(F)cc2F)cc2cnc(NC3CCOCC3)nc21	> 25000 nM
COc1cc(C2c3cc4c(cc3C(O)C(CO)C2CO)OCO4)cc(OC)c1OC (centres undefined)	492 nM
C[C@H]1Oc2cc(cnc2N)-c2c(nn(C)c2C#N)CN(C)C(=O)c2ccc(F)cc21	22900 nM
C=CCc1cccc(/C=N/NC(=O)CN2CCN(Cc3ccccc3)CC2)c1O	1710 nM
COc1ccccc1N1CCN(CCCn2c(=O)c3c(OC)nc(C)cc3c(=O)n2-c2ccccc2)CC1	> 100000 nM

I would be grateful if you could provide GI50 for each of the following entries.
1. CCN(CC)CCOc1ccc(/C=C2\CC3C4CC=C5C[C@@H](O)CC[C@]5(C)C4CC[C@]3(C)C2=O)cc1OC (some centres undefined)
2. Ic1ccc(-n2nnnc2-c2cnoc2-c2ccccc2)cc1
3. COC12C=C/C(=C(/C(=O)OCc3ccncc3)C(=O)CCCCCCCCC3(OC)C=C/C(=C(/C(=O)OCc4ccncc4)C(=O)CCCCCCCC1)O3)O2
4. C=CC(=O)N1CCC(C2CCNc3c(C(N)=O)c(-c4ccc(Oc5ccccc5)cc4)nn32)CC1 (centres undefined)

Response:
2440 nM
> 43000 nM
111 nM
17600 nM

----------
tested on: CCRF-CEM leukemia; test: NCI tumour cell line growth inhibition, 48 h; in the data active = GI50 below about 0.43 µM; inactive = the rest
Return exactly one item of active, inactive

Study these solved cases before continuing.
Compound	Cat
C=CCCCCCCCCCCC1(O)C=CC2=[N+](CCCCCN=C(N)N)CCCN21 (configuration not stated)	inactive
Cc1ccc(Cl)cc1Nc1nc(C(F)(F)F)ccc1C(=O)N1CCN(c2cccc(Cl)c2)CC1	inactive
CCN(CC)c1nc(-c2ccc(Cl)cc2Cl)nc2ccccc12	inactive
COc1cccc(/C=N/[N-]C(=O)c2ccncc2)c1[O-].[Cu+2].[OH3+]	inactive

Query: Would you mind telling me which call this test gave O=c1cc2oc3cc(O)c(O)cc3c(-c3ccccc3O)c-2cc1O ?
Response: inactive

Query: State the result this test recorded for Nc1c(C(=O)Nc2cccc(Br)c2)sc2nc3c(cc12)C(=O)CCC3 .
Response: active

Query: Would you mind telling me which call this test gave O=c1[nH]c(=O)n(C2CC(O)C(CO)O2)cc1CO (configuration not stated) ?
Response: inactive

Query: Assay result, entry CCOc1ccc2nc(S/C(=C/C=C(C#N)C#N)c3ccc(C)cc3)sc2c1 — outcome?
Response: inactive

Query: Hi, do you know how Cc1ccc(/C=C/c2c(C(=O)/C=C/c3ccc(C(F)(F)F)cc3)c(C)nc3ccccc23)cc1 came out in this test?
Response: active

Query: So what was the verdict on Ic1ccc(-n2nnnc2-c2cnoc2-c2ccccc2)cc1 in this test?
Response: inactive

----------
system: HOP-62 NSCLC; assay: NCI tumour cell line growth inhibition, 48 h; in the data active = GI50 below about 0.43 µM; inactive = the rest
Answer with one of the outcomes t (active), f (inactive)

Answered cases to consult:
Molecule	Cat
CCOC(=O)C(=Cc1cccc(Cl)c1)C(=O)OCC	f
Nc1c(C(=O)Nc2cccc(Br)c2)sc2nc3c(cc12)C(=O)CCC3	f
COc1ccncc1C#Cc1cncc(C(=O)Nc2ccc(CN3CCN(C)CC3)c(C(F)(F)F)c2)c1	f
COc1ccc2[nH]cc(-c3nc(-c4c[nH]c5ncccc45)cs3)c2c1	f
COc1cc(-c2nn(-c3cccc(NC(=O)Nc4ccc(Cl)c(Cl)c4)c3)cc2-c2ccncc2)ccc1Cl	f

Query: Just curious, what result did Cc1csc(Nc2nc(-c3cccc(Br)c3)nc(C(Cl)(Cl)Cl)n2)n1 get here?
Response: f

Query: Called result for COc1cc(C2c3cc4c(cc3C(O)C(CO)C2CO)OCO4)cc(OC)c1OC (stereo not drawn)
Response: f

Query: State the result this test recorded for O=c1cc2oc3cc(O)c(O)cc3c(-c3ccccc3O)c-2cc1O .
Response: f

Query: Hi, do you know how Cc1ccc(Cl)cc1Nc1nc(C(F)(F)F)ccc1C(=O)N1CCN(c2cccc(Cl)c2)CC1 came out in this test?
Response: f

Query: Lab log entry: CCN(CC)c1nc(-c2ccc(Cl)cc2Cl)nc2ccccc12 — outcome as called in the assay?
Response: f

Query: Per the assay record, what outcome was assigned to Cc1nc2cnc(N)c(C#Cc3cncc(C(=O)Nc4ccc(CN5CCN(C)CC5)c(C(F)(F)F)c4)c3)c2nc1C ?
Response: f

Query: Fill in: this test's call for N=c1ccn2c(n1)OC1C(O)C(CO)OC12 (stereo not drawn) is ___
Response: t

Query: Assay outcome for CC(C)=CCc1cc(O)cc2c1OC(C=C(C)C)C1=C2C(=O)C2=C(NCCS2(=O)=O)C1=O (stereo not drawn) : what was it?
Response: f

----------
system: HOP-62 NSCLC; assay: NCI tumour cell line growth inhibition, 48 h
Attribute measured: TGI

# count of solved cases: 5
Compound	Attribute measured	Result
COc1ccncc1C#Cc1cncc(C(=O)Nc2ccc(CN3CCN(C)CC3)c(C(F)(F)F)c2)c1	TGI	> 100 µM
CC(CC(=O)O)C(C(=O)O)C(=O)O (centres undefined)	TGI	> 100 µM
O=C(Nc1cc(Cl)ccc1Cl)c1cc2cccc(Cl)c2oc1=O	TGI	> 100 µM
Cc1ccc(/C=C/c2c(C(=O)/C=C/c3ccc(C(F)(F)F)cc3)c(C)nc3ccccc23)cc1	TGI	3.73 µM
Cc1ccc(S(=O)(=O)N/N=C/c2oc(-c3ccncc3)c(-c3ccncc3)c2[N+](=O)[O-])cc1	TGI	> 100 µM

Give TGI for each of the items listed below.
1. Nc1nc2c(ncn2Cc2ccc(CO)cc2)c(=O)[nH]1
2. Cc1cc(OCc2nnc3n2N=C(c2cc(F)c(Cl)cc2Cl)/C(=C/c2ccc(Cl)cc2)S3)ccc1Cl
3. O=[N+]([O-])c1ccc(-n2nnc(C3=NCCN3)c2-c2ccc(Cl)cc2)cc1
4. CC(CCC#N)(CCC#N)C(=O)CC(O)(C(F)(F)F)C(F)(F)F
5. COc1ccc(/C(=N\NC(=O)C(N)=O)C(c2ccc(OC)cc2)C2(O)C(=O)Nc3c(Cl)cccc32)cc1 (centres undefined)
6. O=c1[nH]c(=O)n(C2CC(O)C(CO)O2)cc1CO (centres undefined)
7. COc1ccc(CN(Cc2ccc(OC)cc2)C(=O)CC2(O)C=CCC2)cc1 (centres undefined)

Response:
> 100 µM
> 100 µM
> 100 µM
38.7 µM
> 100 µM
> 100 µM
> 100 µM

Look at each compound and report its TGI.
1. C[C@H]1NC(=O)C2CCCCN2C(=O)CN(C)C(=O)CNC(=O)C2CCCCN2C(=O)[C@@H](NC(=O)c2nc3ccccc3cc2O)[C@@H](C)NC(=O)C2CCCCN2C(=O)CN(C)C(=O)CNC(=O)[C@@H]2CCCCN2C(=O)C1NC(=O)c1nc2ccccc2cc1O (some centres undefined)
2. CC(=O)n1c2c(c(=O)n1-c1ccccc1)S(=O)CCC2 (centres undefined)

Response:
["0.66 µM", "28.2 µM"]

// batch mode: one TGI value per listed entry
1. O=[N+]([O-])c1cc2c(c3nonc13)OCCCCO2
2. COC(=O)c1c(O)ccc2c1c1c(n2Cc2ccc(Cl)cc2Cl)C(=O)c2ccccc2C1
3. CCO/C=N/NC(=O)CSc1nc2ccc(I)cc2c(=O)n1Cc1ccccc1
4. CCOC(=O)C(C)(C)Oc1ccc2c(C)c(-c3ccc(Cl)cc3)c(=O)oc2c1

Response:
1. 16.2 µM
2. > 100 µM
3. > 100 µM
4. > 100 µM

Batch request: TGI for each of the following compounds.
1. N=c1ccn2c(n1)OC1C(O)C(CO)OC12 (centres undefined)
2. COc1cc(CNCCCN2C(=O)c3ccc4c5c(ccc(c35)C2=O)C(=O)N(CCCNCc2cc(OC)c(OC)c(OC)c2)C4=O)cc(OC)c1OC

Response:
130 µM
1.32 µM

I would be grateful if you could provide TGI for each of the following entries.
1. O=C(O)CCN(CCC(=O)O)c1ccc(/C=C2\SC(=S)NC2=O)cc1
2. O=C(c1ccc(Cl)cc1)c1cnc(Nc2ccccc2Cl)s1

Response:
> 100 µM
54 µM

Hi, could you look up TGI for each item in my list?
1. CCc1nc2ccc(N=NN(C)C)cc2[nH]1
2. O=c1n(-c2ccccc2)c(=O)n2n1C1C=CC2C2C(C1)C2(Cl)Cl (centres undefined)
3. CCN(CC)CCOc1ccc(/C=C2\CC3C4CC=C5C[C@@H](O)CC[C@]5(C)C4CC[C@]3(C)C2=O)cc1OC (some centres undefined)

Response:
1: > 100 µM; 2: > 100 µM; 3: 10.9 µM

Record TGI for all entries; do not skip any.
1. O=C1NN=C2C=C(c3ccc(Cl)cc3)CC(c3cccc(Cl)c3)C12 (centres undefined)
2. CC(C)=CCc1cc(O)cc2c1OC(C=C(C)C)C1=C2C(=O)C2=C(NCCS2(=O)=O)C1=O (centres undefined)
3. CS(=O)(=O)CCCn1c(=O)c(Oc2ccc(F)cc2F)cc2cnc(NC3CCOCC3)nc21
4. CCOc1ccc2c(c1)[n+]([O-])c(-c1ccccc1Cl)c(N)[n+]2[O-]
5. O=c1[nH]cc(COCCO)c(=O)[nH]1
6. COc1ccccc1N1CCN(CCCn2c(=O)c3c(OC)nc(C)cc3c(=O)n2-c2ccccc2)CC1
7. CCOC(=O)C(=Cc1cccc(Cl)c1)C(=O)OCC
8. C[C@@H]1CCC2[C@@H](C)[C@@H](OCCO[C@H]3OC4O[C@@]5(C)CCC6[C@H](C)CCC([C@H]3C)[C@@]46OO5)OC3O[C@@]4(C)CCC1[C@]32OO4 (some centres undefined)

Response:
> 100 µM
5.94 µM
> 25 µM
> 100 µM
> 100 µM
> 100 µM
7.58 µM
> 100 µM

Answer for every listed entry: what is its TGI? The entries follow.
1. Cc1ccc(-c2nc3ccc([N+](=O)[O-])cc3[nH]2)cc1
2. O=C1c2ccccc2C2(O)c3cc4ccccc4cc3OC12O (centres undefined)
3. COC1[C@@H](OC(C)=O)[C@@H](NC(=O)C(Cl)(Cl)Cl)C(I)[C@@H](N2C(=O)c3ccccc3C2=O)[C@H]1OC (some centres undefined)
4. O=C1NC(=S)NNC12c1ccccc1-c1ccccc12
5. CC(=O)O[C@H]1CCC2[C@@H]3CCC4=C(O)c5nocc5C[C@]4(C)C3CC[C@@]21C (some centres undefined)
6. CN(C)c1c([O-])c(=[N+](C)C)c1=O

Response:
1: > 100 µM; 2: > 100 µM; 3: > 100 µM; 4: > 10 µM; 5: > 100 µM; 6: > 100 µM
